Origin of measurements: patent US20240294543A1

# TARGET_OR_SYSTEM: h-GABA-A α2β2γ1 (Homo sapiens (Human), UniProt P47869+Q8N1C3)
# PROTOCOL_TEXT: Two-electrode voltage clamp electrophysiology in Xenopus oocytes expressing GABAA receptors
# Type: cell-based
# ASSAY_CONDITIONS: % modulation of GABA EC20 = 100*(Fold increase−1), compound at about 30-fold its Ki α2β2γ1
ASSAY_ENDPOINT: Efficacy (GABA) % (%)
One number for each entry, in %.

Some solved entries appear below for comparison.
> print(dat)
                                   compound                          target.or.system  unit.name  reported.measurement
1  Cc1nc2n(n1)-c1sc3c(c1C(c1c(F)cccc1F)=N[C@H]2C)COCCO3 [Example 28]  h-GABA-A α2β2γ1 (Homo sapiens (Human), UniProt P47869+Q8N1C3)          %                    40
2  Cc1nnc2n1-c1sc3c(c1C(c1c(F)cccc1F)=N[C@H]2C)CCCC[C@@H]3F (single isomer, unassigned) [Example 12]  h-GABA-A α2β2γ1 (Homo sapiens (Human), UniProt P47869+Q8N1C3)          %                   185
3  C[C@@H]1N=C(c2c(F)cccc2F)c2c(sc3c2COCCC3)-n2nc(C(=O)N[C@H]3C[C@H](O)C3)nc21 [Example 63]  h-GABA-A α2β2γ1 (Homo sapiens (Human), UniProt P47869+Q8N1C3)          %                   169

# evaluate next
Provide value of Efficacy (GABA) % for this record tested with h-GABA-A α2β2γ1 (Homo sapiens (Human), UniProt P47869+Q8N1C3): C[C@@H]1N=C(c2c(F)cccc2F)c2c(sc3c2COCCO3)-n2nc(C(=O)NC3CC3)nc21 [Example 36]
89

---

# TARGET_OR_SYSTEM: h-GABA-A α2β2γ1 (Homo sapiens (Human), UniProt P47869+Q8N1C3)
# PROTOCOL_TEXT: Two-electrode voltage clamp electrophysiology in Xenopus oocytes expressing GABAA receptors
# Format: cell-based
# ASSAY_CONDITIONS: Xenopus oocytes, GABA EC20, compound at about 30-fold its Ki α2β2γ1
ASSAY_ENDPOINT: Fold increase h-GABA-A α2β2γ1 oocyte @ 30-fold Ki

> print(dat)
                                smiles.code  reported.measurement
1  C[C@@H]1N=C(c2c(F)cccc2F)c2c(sc3c2COCCO3)-n2nc(C(=O)N3CCC3)nc21                  1.88
2  C[C@@H]1N=C(c2c(F)cccc2F)c2c(sc3c2COCCC3)-n2nc(C(=O)N[C@H]3C[C@@H](O)C3)nc21                  2.64
3  CCOC1CN(C(=O)c2nc3n(n2)-c2sc4c(c2C(c2c(F)cccc2F)=N[C@H]3C)COCCO4)C1                  1.69

Go through the items and report each one's Fold increase h-GABA-A α2β2γ1 oocyte @ 30-fold Ki.
1. C[C@@H]1N=C(c2c(F)cccc2F)c2c(sc3c2COC[C@H](C)O3)-n2nc(C(=O)N3CC(OC(C)(C)C)C3)nc21
2. Cc1nnc2n1-c1sc3c(c1C(c1c(F)cccc1F)=N[C@H]2C)OCCCC3
3. C[C@@H]1N=C(c2c(F)cccc2F)c2c(sc3c2COCCC3)-n2nc(C(=O)NCC3(O)CC3)nc21

1. 2.67
2. 1.76
3. 2.79
